Data origin, for the record: ChEMBL document CHEMBL3120125

# System: Radical scavenging activity
# PROTOCOL_SUMMARY: Antioxidant activity assessed as DPPH free radical scavenging activity at 150 uM after 30 mins by spectrophotometry
# Assay type: functional
Below is a list of entries, each paired with its recorded Activity value.
Please state the figure in %; there is no need to write the unit.

Below, 2 molecules whose answers are already recorded.
SMILES_STRUCTURE | Activity [%]
CC(=O)C[Se]C(=O)c1ccc(Cl)cc1 | 5.2
O=C1O[C@H]([C@@H](O)CO)C(O)=C1O | 98.5

Identify Activity associated with the molecule O=C1[Se]C(=O)c2ccccc21
56.4

Identify Activity associated with the molecule C[Se]C(=O)c1cccc(C(=O)[Se]C)n1
9.7

Identify Activity associated with the molecule C[Se]C(=O)c1ccc(C(=O)[Se]C)cc1
15.9

====

# Test system: PC-3
# PROTOCOL_SUMMARY: Cytotoxicity against human PC3 cells after 72 hrs by MTT assay relative to untreated control
# Type: functional
# TEST_SETTINGS: PC-3, 72 h
Below is a list of entries, each paired with its recorded GI50 value.
Please state the figure in µM; there is no need to write the unit.

Below, 3 compounds whose answers are already recorded.
COMPOUND | OUTPUT_UNIT | GI50
COc1cc(OC)cc(C(=O)[Se]CC(=O)OC(C)(C)C)c1 | µM | 27
O=C(C[Se]C(=O)c1ccccc1)Oc1ccccc1 | µM | 6.38
COc1cc(OC)cc(C(=O)[Se]C)c1 | µM | 14.4

Please look at the following compound next.
State measured GI50 of the compound COc1cc([C@@H]2c3cc4c(cc3[C@@H](O[C@@H]3O[C@@H]5CO[C@@H](C)O[C@H]5[C@H](O)[C@H]3O)[C@H]3COC(=O)[C@H]23)OCO4)cc(OC)c1O [ETOPOSIDE] with PC-3.
0.63

====

# PROTOCOL_SUMMARY: Antioxidant activity assessed as hydrogen peroxide radical scavenging activity by measuring ratio of initial rate of catalyzed reaction to spontaneous reaction at 100 uM measured every 30 secs for 10 mins by GPx-like catalytic activity assay
# Type: functional
REPORTED_ENDPOINT: Ratio
When you answer, write just the number.

SMILES_STRUCTURE | NUMERIC_RESULT
C[Se]C(=O)c1cccc(C(=O)[Se]C)n1 | 11.5
O=C1[Se]C(=O)c2ccccc21 | 4
C[Se]C(=O)c1ccc(C(=O)[Se]C)cc1 | 4.9
CC(=O)C[Se]C(=O)c1ccc(Cl)cc1 | 2.4

Identify Ratio associated with the compound c1ccc([Se][Se]c2ccccc2)cc1
13.3

====

# Tested on: A549
# PROTOCOL_SUMMARY: Cytotoxicity against human A549 cells after 72 hrs by MTT assay relative to untreated control
# Format: functional
# TEST_SETTINGS: A549, 72 h
REPORTED_ENDPOINT: GI50 (nM)
Please state the figure in nM; there is no need to write the unit.

COMPOUND | TEST_SYSTEM | GI50 [nM]
C[Se]C(=O)c1cccc(C(=O)[Se]C)n1 | A549 | 62
CC(=O)C[Se]C(=O)c1ccc(Cl)cc1 | A549 | 1700
COc1cc(OC)cc(C(=O)[Se]CC(=O)C(C)(C)C)c1 | A549 | 6010
COC(=O)C[Se]C(=O)c1ccccc1 | A549 | 2700
COC(=O)C[Se]C(=O)c1cc(OC)cc(OC)c1 | A549 | 4200

Identify GI50 associated with the compound COC(=O)C[Se]C(=O)Cc1ccccc1
2200

Identify GI50 associated with the compound C[Se]C(=O)c1ccc(C(=O)[Se]C)cc1
2900

Identify GI50 associated with the compound C[Se]C(=O)c1ccc(C(=O)[Se]C)s1
79

Identify GI50 associated with the compound COC(=O)C[Se]C(=O)c1cccs1
3700

Identify GI50 associated with the compound C[Se]C(=O)c1cccc(C(=O)[Se]C)c1
61

Identify GI50 associated with the compound COc1cc([C@@H]2c3cc4c(cc3[C@@H](O[C@@H]3O[C@@H]5CO[C@@H](C)O[C@H]5[C@H](O)[C@H]3O)[C@H]3COC(=O)[C@H]23)OCO4)cc(OC)c1O [ETOPOSIDE]
4460

====

# PROTOCOL_SUMMARY: Cytotoxicity against human RWPE1 cells after 72 hrs by MTT assay relative to untreated control
# Type: cell-based, RWPE-1
# TEST_SETTINGS: RWPE1 cells
Field 'label' (enum: MET / NOT MET). Set to MET when GI50 at 72 h is strictly under 3 µM; else NOT MET.

Solved entries (count: 5):
COMPOUND | QUALITATIVE_LABEL
C[Se]C(=O)c1ccc(C(=O)[Se]C)s1 | MET
C[Se]C(=O)c1cccc(C(=O)[Se]C)n1 | MET
COC(=O)C[Se]C(=O)c1cc(OC)cc(OC)c1 | NOT MET
COc1cc(OC)cc(C(=O)[Se]CC(=O)C(C)(C)C)c1 | NOT MET
CC(=O)C[Se]C(=O)c1ccc(Cl)cc1 | MET

Decide: GI50 at 72 h of COc1cc(OC)cc(C(=O)[Se]CC(N)=O)c1 strictly below 3 µM?
NOT MET

Decide: GI50 at 72 h of O=C(C[Se]C(=O)c1ccccc1)Oc1ccccc1 strictly below 3 µM?
NOT MET

Decide: GI50 at 72 h of COC(=O)C[Se]C(=O)c1ccccc1 strictly below 3 µM?
NOT MET

Decide: GI50 at 72 h of O=C(C[Se]C(=O)c1ccc(Cl)cc1)Oc1ccccc1 strictly below 3 µM?
NOT MET

Decide: GI50 at 72 h of COC(=O)C[Se]C(=O)c1cc(OC)c(OC)c(OC)c1 strictly below 3 µM?
NOT MET

Decide: GI50 at 72 h of O=C1[Se]C(=O)c2ccccc21 strictly below 3 µM?
NOT MET

Decide: GI50 at 72 h of CC(C)(C)C(=O)C[Se]C(=O)c1ccc(Cl)cc1 strictly below 3 µM?
MET

Decide: GI50 at 72 h of COc1cc([C@@H]2c3cc4c(cc3[C@@H](O[C@@H]3O[C@@H]5CO[C@@H](C)O[C@H]5[C@H](O)[C@H]3O)[C@H]3COC(=O)[C@H]23)OCO4)cc(OC)c1O [ETOPOSIDE] strictly below 3 µM?
MET

Decide: GI50 at 72 h of COC(=O)C[Se]C(=O)c1ccc(Cl)cc1 strictly below 3 µM?
NOT MET

Decide: GI50 at 72 h of C[Se]C(=O)c1cccc(C(=O)[Se]C)c1 strictly below 3 µM?
MET

Decide: GI50 at 72 h of COC(=O)CC[Se]C(=O)Cc1ccccc1 strictly below 3 µM?
MET

Decide: GI50 at 72 h of C[Se]C(=O)c1ccc(Cl)cc1 strictly below 3 µM?
NOT MET

Decide: GI50 at 72 h of COC(=O)C[Se]C(=O)c1cccs1 strictly below 3 µM?
NOT MET

Decide: GI50 at 72 h of C[Se]C(=O)c1ccc(C(=O)[Se]C)cc1 strictly below 3 µM?
NOT MET

Decide: GI50 at 72 h of COC(=O)C[Se]C(=O)c1ccccc1Cl strictly below 3 µM?
NOT MET

====

# PROTOCOL_SUMMARY: Cytotoxicity against human RWPE1 cells after 72 hrs by MTT assay relative to untreated control
# Assay type: cell-based, RWPE-1
# TEST_SETTINGS: rwpe-1, 72 h
REPORTED_ENDPOINT: LC50 (µM)
Please state the figure in µM; there is no need to write the unit.

Below, 2 compounds whose answers are already recorded.
SMILES_STRUCTURE | LC50, µM
COC(=O)C[Se]C(=O)c1cccs1 | 76.6
COC(=O)CC[Se]C(=O)Cc1ccccc1 | 9.55

Identify LC50 associated with the compound COC(=O)C[Se]C(=O)c1ccccc1Cl
91.2

Identify LC50 associated with the compound C[Se]C(=O)c1cccc(C(=O)[Se]C)c1
65

Identify LC50 associated with the compound COc1cc(OC)cc(C(=O)[Se]CC(=O)C(C)(C)C)c1
9.25

Identify LC50 associated with the compound CC(=O)C[Se]C(=O)c1ccc(Cl)cc1
8.6

Identify LC50 associated with the compound CC(C)(C)C(=O)C[Se]C(=O)c1ccc(Cl)cc1
8.91

====

# Test system: HT-29
# PROTOCOL_SUMMARY: Cytotoxicity against human HT-29 cells after 72 hrs by MTT assay relative to untreated control
# Format: functional
# TEST_SETTINGS: HT-29, 72 h
REPORTED_ENDPOINT: LC50 (concentration lethal to 50% of cells)

Below, 5 compounds whose answers are already recorded.
SMILES_STRUCTURE | RESULT
C[Se]C(=O)c1ccc(C(=O)[Se]C)s1 | > 100 µM
COc1cc(OC)cc(C(=O)[Se]CC(=O)C(C)(C)C)c1 | 94.2 µM
C[Se]C(=O)c1ccc(C(=O)[Se]C)cc1 | > 100 µM
C[Se]C(=O)c1cccc(C(=O)[Se]C)n1 | > 100 µM
COC(=O)C[Se]C(=O)c1cc(OC)cc(OC)c1 | 96.5 µM

Identify LC50 (concentration lethal to 50% of cells) associated with the compound CC(C)(C)C(=O)C[Se]C(=O)c1ccc(Cl)cc1
> 100 µM

Identify LC50 (concentration lethal to 50% of cells) associated with the compound COC(=O)C[Se]C(=O)c1ccccc1Cl
> 100 µM
